# System Tested: Muscarinic acetylcholine receptor M2 (Homo sapiens)
# Assay Summary: human M2 receptor positive allosteric modulation, SAR follow-up, selectivity assay for M4 PAM optimization, CHO cells, Gqi5 chimera, calcium mobilization (AID 623925)
# Condition Details: CHO hM2/Gqi5 calcium mobilization, ACh EC20 potentiation
Calls of active or inactive are those of the source.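 Rule for the calls: active = compounds whose calcium response changes with concentration, giving a dose-dependent curve as judged by the depositor; inactive = the rest, with no dose-dependent response.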
Readout Kind: outcome

Cc1nc2sc(C(=O)NCc3ccccc3)c(N)c2c(C)c1Cl: inactive
Cc1nc2sc(C(=O)NCc3cccnc3)c(N)c2c(C)c1Cl: inactive
Cc1nc2sc(C(=O)NCc3ccncc3)c(N)c2c(C)c1Cl: inactive
Cc1nc2sc(C(=O)NCc3ccc4c(c3)OCO4)c(N)c2c(C)c1Cl: inactive
